Values were extracted from paper PMC4890880.

Test system: Plasmodium berghei (Pb-Luc) exoerythrocytic-stage parasites
Conditions: second series; concentration 0.0137174; fraction of control
Please note: normalized signal at concentration 0.0137174 exactly at 0.9 is No. Only values below 0.9 get Yes.

Examples with answers:
COc1ccc(NC(=O)N(C)C[C@H]2Oc3ccc(NC(=O)CCN4CCOCC4)cc3C(=O)N([C@H](C)CO)C[C@@H]2C)cc1 = Yes
Cc1cccc(-c2ccc(C3[C@@H]4CN(C(=O)CN(C)C)C[C@H]3N4)cc2)c1 (stereo partly shown) = No
C[C@@H]1CN([C@H](C)CO)C(=O)c2cc(N(C)C)ccc2O[C@@H](C)CCCCO[C@H]1CN(C)S(=O)(=O)c1ccc(F)cc1 = No
C[C@@H]1CCCCO[C@@H](CN(C)S(=O)(=O)c2ccc(F)cc2)[C@@H](C)CN([C@H](C)CO)C(=O)c2cc(N(C)C)ccc2O1 = No
O=S(=O)(c1cccs1)N1CCCCN2[C@H](CO)[C@H](c3ccc(/C=C/c4ccccc4)cc3)[C@H]2C1 = No
CCc1csc(N2[C@H](CO)[C@H](c3ccccc3)[C@@H]2CNC)n1 = No

I'd appreciate it if you could check whether "C[C@H]1CCCCO[C@H](CN(C)S(=O)(=O)c2ccc(F)cc2)[C@@H](C)CN([C@@H](C)CO)C(=O)c2cc(N(C)C)ccc2O1" has normalized signal at concentration 0.0137174 smaller than 0.9.
No

I'd appreciate it if you could check whether "C[C@@H]1CN([C@H](C)CO)C(=O)c2cc(N(C)C)ccc2O[C@@H](C)CCCCO[C@@H]1CN(C)S(=O)(=O)c1ccc(F)cc1" has normalized signal at concentration 0.0137174 smaller than 0.9.
Yes

###

Test system: Plasmodium berghei (Pb-Luc) exoerythrocytic-stage parasites
Assay: microbe, parasite or virus in culture
Conditions: read-out: PbLuc IC50, dose response, 1/3 dilutions, max conc. 10 or 50 uM, unit inferred
measurement_label: log10 IC50 (log10 of the value in µM)
Scale type: logarithmic (base 10). Underlying IC50 unit: µM.

Here is how some compounds turned out for log10 IC50.
COc1cc(OC)c(N(C)C(=O)c2cc3c(s2)-c2ccccc2S(=O)(=O)C3)cc1Cl = 1.04
O=C(Nc1ccc(Cl)c(Cl)c1)Nc1ccc(Cl)c(Cl)c1 = -0.17

So what does the record say about log10 IC50 for COc1ccc(NC(=O)C2c3ccccc3C(=O)N(CC(C)C)C2c2cccs2)cc1 (centres unmarked) ?
1.24

So what does the record say about log10 IC50 for Cc1ccc(N2C(=O)C3C(C2=O)C2(c4ccccc4)C(=O)C3(c3ccccc3)C(c3ccccc3)=C2c2ccccc2)cc1 (centres unmarked) ?
0.82

So what does the record say about log10 IC50 for O=C(NC(c1ccccc1)c1ccc2cccnc2c1O)c1ccccc1 (centres unmarked) ?
0.19

So what does the record say about log10 IC50 for CCN(CC)CCn1c(=N)n(CC(O)c2ccc(Cl)c(Cl)c2)c2ccccc21 (centres unmarked) ?
0.93

So what does the record say about log10 IC50 for "CCOc1ccc(C=Cc2nc(=O)c3ccccc3o2)cc1" ?
-0.19

So what does the record say about log10 IC50 for CCCCCCn1c(=N)n(CC(O)COc2cccc(C)c2)c2ccccc21 (centres unmarked) ?
0.68

###

Test system: Plasmodium berghei (Pb-Luc) exoerythrocytic-stage parasites
Experiment: microbe, parasite or virus in culture
Details: read-out: Inhibition% @ 50 uM rep2
measurement_label: inhibition at 50 µM (%)
# number only, unit % dropped from output

N=c1c2ccccc2nnn1-c1cccc(C(F)(F)F)c1 [MMV665923] = 99
CCCCC(O)(c1ccc(Cl)cc1)C(CN1CCOCC1)c1ccc(Cl)cc1 (stereo not drawn) [MMV000619] = 100
c1ccc2cc3c(Nc4ccc(N5CCOCC5)cc4)ccnc3cc2c1 [MMV006861] = 105
Oc1ccccc1CNCC12CC3CC(CC(C3)C1)C2 [MMV020788] = 103

So what does the record say about inhibition at 50 µM for Cc1ccc(C2CC(C(F)(F)F)n3nc(C(=O)N4CCN(C(c5ccccc5)c5ccccc5)CC4)cc3N2)cc1 (stereo not drawn) [MMV000699] ?
101

So what does the record say about inhibition at 50 µM for CCn1c2c(c(=N)c3c1CCC3)CCCC2 [MMV000340] ?
102
